- System: HCC1937;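 note: breast cancer cell viability read out with the CCK-8 kit after co-treatment of each compound with the ferroptosis inducer RSL3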
- RUN DESCRIPTION: relative cell viability, compound + RSL3, vs DMSO (fraction of DMSO control); higher = less growth inhibition
- APPLIED CONDITIONS: 72 h

MOLECULE	relative cell viability
Cc1cccc(Nc2cc(Cl)nc(SCC(=O)O)n2)c1C [Pirinixic Acid] + COC(=O)c1ccc([C@H]2c3[nH]c4ccccc4c3C[C@H](C(=O)OC)N2C(=O)CCl)cc1	0.603
CCOC(=O)N1c2ccc(C(F)(F)F)cc2[C@@H](N(Cc2cc(C(F)(F)F)cc(C(F)(F)F)c2)C(=O)OC)C[C@H]1CC [Torcetrapib] + COC(=O)c1ccc([C@H]2c3[nH]c4ccccc4c3C[C@H](C(=O)OC)N2C(=O)CCl)cc1	0.642
C=CC[S+]([O-])C[C@H](N)C(=O)O (stereo not given in full) [Alliin] + COC(=O)c1ccc([C@H]2c3[nH]c4ccccc4c3C[C@H](C(=O)OC)N2C(=O)CCl)cc1	0.554
CCOc1cc(CC(=O)N[C@@H](CC(C)C)c2ccccc2N2CCCCC2)ccc1C(=O)O [Repaglinide] + COC(=O)c1ccc([C@H]2c3[nH]c4ccccc4c3C[C@H](C(=O)OC)N2C(=O)CCl)cc1	0.598
C/C=C(\CC[C@@H](C)[C@H]1CC[C@H]2[C@@H]3CC=C4C[C@@H](O)CC[C@]4(C)[C@H]3CC[C@]12C)C(C)C [Fucosterol] + COC(=O)c1ccc([C@H]2c3[nH]c4ccccc4c3C[C@H](C(=O)OC)N2C(=O)CCl)cc1	0.476

Source: the supplement of paper PMC9492666
